Answer each item with its documented MFI.
Molecular target: T1, human chemokine (C-C motif) receptor 8 (CCR8) (human, UniProt P51685 1-355)
T1 construct: On human peripheral blood lymphocytes / PBMC (native) or on human CCR8 GFP-transfected Ba/F3 cells; also called hCCR8; human CCR8
T1 sequence (P51685 whole entry): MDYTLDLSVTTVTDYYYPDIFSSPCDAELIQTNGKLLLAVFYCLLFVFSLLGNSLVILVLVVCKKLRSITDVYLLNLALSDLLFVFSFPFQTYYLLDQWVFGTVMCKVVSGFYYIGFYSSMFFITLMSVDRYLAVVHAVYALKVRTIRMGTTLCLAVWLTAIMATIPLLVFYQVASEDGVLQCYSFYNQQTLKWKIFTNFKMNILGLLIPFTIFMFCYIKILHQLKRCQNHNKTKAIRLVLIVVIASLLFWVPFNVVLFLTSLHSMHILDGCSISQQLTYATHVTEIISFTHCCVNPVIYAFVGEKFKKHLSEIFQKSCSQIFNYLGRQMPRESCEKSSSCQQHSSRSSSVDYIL
Assay: flow cytometry blocking, PBMC CCR8+ CD4+ cells; competitor PE-AB12 (its MFI is read)
Numbers only.

Completed entries (count: 3):
# binder, assay_readout, data_value
measured = [
    ("AB3 (antibody, V domains shown, Hybridoma monoclonal; also called antibody 3; clone 3) VH: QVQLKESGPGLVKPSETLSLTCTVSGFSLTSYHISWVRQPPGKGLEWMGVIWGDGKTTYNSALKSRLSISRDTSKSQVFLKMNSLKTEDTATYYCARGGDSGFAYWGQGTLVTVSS VL: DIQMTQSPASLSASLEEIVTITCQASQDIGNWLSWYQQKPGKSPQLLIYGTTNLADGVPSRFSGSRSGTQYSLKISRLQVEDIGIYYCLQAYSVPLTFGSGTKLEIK", "MFI", 1050),
    ("AB14 (antibody, V domains shown, Hybridoma monoclonal; also called antibody 14; clone 14) VH: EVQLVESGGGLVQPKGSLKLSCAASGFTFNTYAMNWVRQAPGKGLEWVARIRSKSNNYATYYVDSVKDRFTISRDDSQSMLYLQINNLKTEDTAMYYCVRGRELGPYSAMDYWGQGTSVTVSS VL: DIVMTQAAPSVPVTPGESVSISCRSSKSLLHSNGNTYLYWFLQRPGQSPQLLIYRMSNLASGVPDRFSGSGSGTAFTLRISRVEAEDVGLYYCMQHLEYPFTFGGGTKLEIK", "MFI", 553),
    ("AB15 (antibody, V domains shown, Hybridoma monoclonal; also called antibody 15; clone 15) VH: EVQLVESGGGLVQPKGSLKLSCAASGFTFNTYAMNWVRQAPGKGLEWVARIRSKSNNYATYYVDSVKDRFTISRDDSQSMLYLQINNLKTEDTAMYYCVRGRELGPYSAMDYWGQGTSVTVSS VL: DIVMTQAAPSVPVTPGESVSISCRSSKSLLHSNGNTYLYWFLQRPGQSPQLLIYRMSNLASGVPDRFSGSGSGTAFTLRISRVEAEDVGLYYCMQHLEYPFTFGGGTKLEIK", "MFI", 643),
]

Shift focus to the following entry.
*Q* Tell us which MFI value is on record for AB13 (antibody, V domains shown, Hybridoma monoclonal; also called antibody 13; clone 13) VH: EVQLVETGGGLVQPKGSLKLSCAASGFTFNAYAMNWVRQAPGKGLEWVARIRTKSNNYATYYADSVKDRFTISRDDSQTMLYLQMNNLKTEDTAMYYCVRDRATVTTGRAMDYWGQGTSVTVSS VL: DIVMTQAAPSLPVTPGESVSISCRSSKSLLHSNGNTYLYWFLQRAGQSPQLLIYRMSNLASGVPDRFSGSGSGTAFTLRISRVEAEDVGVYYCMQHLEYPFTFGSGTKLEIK
*A* 977
